testedTarget: 5'-AMP-activated protein kinase catalytic subunit alpha-1 (Mus musculus)
methodDescription: Activation of AMPKalpha in differentiated mouse C2C12 cells assessed as phosphorylated-AMPK level at 10 uM after 30 mins by Western blot analysis relative to control
Format: cell-based
Calls of active or inactive are those of the source. No cut-off for these calls is given here.
In this exercise, the only acceptable responses are label 1 (active), label 0 (inactive)

Asked: What did this assay record as the result for "COc1ccc2c(oc3c4ccc(O)cc4oc(=O)c23)c1CC=C(C)C" ?
Given back: label 1

Asked: What did this assay record as the result for "COc1ccc2c(C=O)c(-c3ccc(O)cc3O)oc2c1CC=C(C)C" ?
Given back: label 1

Asked: What did this assay record as the result for "COc1cc([C@@H]2COc3cc(O)ccc32)c(OC)cc1O" ?
Given back: label 0

Asked: What did this assay record as the result for "CC(C)=CCc1cc2c(cc1O)oc(=O)c1c3ccc(O)c(CC=C(C)C)c3oc21" ?
Given back: label 1

Asked: What did this assay record as the result for COc1cc(C2(C=O)COc3cc(O)ccc32)c(OC)cc1O (configuration not stated) ?
Given back: label 0

Asked: What did this assay record as the result for "CC(C)=CCc1cc(-c2oc3c(CC=C(C)C)c(O)ccc3c2C=O)c(O)cc1O" ?
Given back: label 0

Asked: What did this assay record as the result for "CC(C)=CCc1c(O)ccc2c1oc1c3ccc(O)cc3oc(=O)c21" ?
Given back: label 1
